# ASSAYED_SYSTEM: N-terminally GST-tagged human full length recombinant Mps-1 kinase (Homo sapiens)
# Construct: N-terminally GST-tagged human full length recombinant Mps-1 kinase; purchased Invitrogen, Karslruhe, Germany PV4071
# Sequence (P33981 1-857): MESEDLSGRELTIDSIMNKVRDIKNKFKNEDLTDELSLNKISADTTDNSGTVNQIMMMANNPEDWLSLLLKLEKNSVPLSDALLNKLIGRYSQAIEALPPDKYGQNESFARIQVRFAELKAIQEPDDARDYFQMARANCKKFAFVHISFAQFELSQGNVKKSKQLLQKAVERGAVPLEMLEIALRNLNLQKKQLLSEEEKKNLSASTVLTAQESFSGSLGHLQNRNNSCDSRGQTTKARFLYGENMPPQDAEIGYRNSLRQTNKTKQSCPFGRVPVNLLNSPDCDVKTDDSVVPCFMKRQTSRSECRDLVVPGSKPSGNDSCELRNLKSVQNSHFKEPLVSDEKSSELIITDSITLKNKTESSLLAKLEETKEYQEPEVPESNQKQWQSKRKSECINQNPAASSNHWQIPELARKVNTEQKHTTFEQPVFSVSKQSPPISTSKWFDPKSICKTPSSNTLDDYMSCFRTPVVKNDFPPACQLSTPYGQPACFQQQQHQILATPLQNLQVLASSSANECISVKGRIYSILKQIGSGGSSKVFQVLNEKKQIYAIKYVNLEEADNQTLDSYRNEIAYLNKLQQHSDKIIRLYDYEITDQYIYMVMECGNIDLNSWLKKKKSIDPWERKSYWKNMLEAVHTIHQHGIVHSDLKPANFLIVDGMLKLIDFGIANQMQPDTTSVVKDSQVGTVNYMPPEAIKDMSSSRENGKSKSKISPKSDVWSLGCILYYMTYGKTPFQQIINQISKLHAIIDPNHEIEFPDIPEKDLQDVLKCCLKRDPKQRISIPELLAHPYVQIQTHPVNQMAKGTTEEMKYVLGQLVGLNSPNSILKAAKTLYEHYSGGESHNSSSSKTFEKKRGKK
# ASSAY_EXPLANATION: Mps-1 kinase assay (TR-FRET)
# Type: biochemical
# EXPERIMENTAL_CONTEXT: Mps1 IC50 [nM], 10 μM ATP, 1 μM peptide substrate, 60 min at 22° C.
Entries whose IC50 is below 0.2 nM take true; entries at or above 0.2 nM take false.

[[record]]
molecule = "Cc1cc(F)cc(Oc2cc(NCCCC(F)(F)F)c3ncc(-c4ccc(C(=O)NC5CC5)c(C)c4)n3n2)c1"
group_label = "false"

[[record]]
molecule = "COCCNc1cc(Oc2cccc(F)c2)nn2c(-c3ccc(C(=O)NC4CC4)c(C)c3)cnc12"
group_label = "true"

[[record]]
molecule = "COc1cccc(Sc2cc(NCC(C)(C)O)c3ncc(-c4ccc(C(=O)NC5CC5)c(C)c4)n3n2)c1 [Example 61B]"
group_label = "false"

[[record]]
molecule = "COc1ccc(Nc2cc(NCC(C)(C)O)c3ncc(-c4ccc(C(=O)NC5CC5)c(C)c4)n3n2)cc1F"
group_label = "false"

[[record]]
molecule = "Cc1cc(-c2cnc3c(NCCN(C)C)cc(Oc4cccc(F)c4)nn23)ccc1C(=O)NC1CC1"
group_label = "true"


Data origin, for the record: patent US9255100B2
